- Tested on: Proteus vulgaris
- assayDetails: Compound was tested for antibacterial activity against gram negative Proteus vulgaris KS-134
- Format: functional
- conditionSummary: Proteus vulgaris; read-out: MIC
observationType: MIC (µg/mL)

{"compound": "COc1c(N2C[C@@H](CO)[C@H](C(F)(F)F)C2)c(F)cc2c(=O)c(C(=O)O)cn(C3CC3)c12", "testedSystem": "Proteus vulgaris", "observationType": "MIC", "quantitativeReadout": 100}
{"compound": "COc1c(N2C[C@H](CO)[C@H](C(F)(F)F)C2)c(F)cc2c(=O)c(C(=O)O)cn(C3CC3)c12", "testedSystem": "Proteus vulgaris", "observationType": "MIC", "quantitativeReadout": 100}
{"compound": "COc1c(N2C[C@@H](C(F)(F)F)[C@@H](N)C2)c(F)cc2c(=O)c(C(=O)O)cn(C3CC3)c12.Cl", "testedSystem": "Proteus vulgaris", "observationType": "MIC", "quantitativeReadout": 100}
{"compound": "COc1c(N2C[C@@H](N)[C@H](C(F)(F)F)C2)c(F)cc2c(=O)c(C(=O)O)cn(C3CC3)c12.O=C(O)C(F)(F)F", "testedSystem": "Proteus vulgaris", "observationType": "MIC", "quantitativeReadout": 100}
{"compound": "CC1COc2c(N3CCN(C)CC3)c(F)cc3c(=O)c(C(=O)O)cn1c23 (stereo not drawn)", "testedSystem": "Proteus vulgaris", "observationType": "MIC", "quantitativeReadout": 50}
{"compound": "COc1c(N2C[C@H](CN)[C@@H](C(F)(F)F)C2)c(F)cc2c(=O)c(C(=O)O)cn(C3CC3)c12.Cl", "testedSystem": "Proteus vulgaris", "observationType": "MIC", "quantitativeReadout": 50}
{"compound": "COc1c(N2C[C@H](CN)[C@H](C(F)(F)F)C2)c(F)cc2c(=O)c(C(=O)O)cn(C3CC3)c12.Cl", "testedSystem": "Proteus vulgaris", "observationType": "MIC", "quantitativeReadout": 25}
{"compound": "COc1c(N2CC[C@@](CO)(C(F)(F)F)C2)c(F)cc2c(=O)c(C(=O)O)cn(C3CC3)c12", "testedSystem": "Proteus vulgaris", "observationType": "MIC", "quantitativeReadout": 100}

Data provenance: ChEMBL document CHEMBL1130625
